Values from ChEMBL document CHEMBL3244320

Test system: Plasmodium berghei
Assay: Antimalarial activity against Plasmodium berghei KBG 173 infected in ICR/HA Swiss mouse assessed as increase in mean survival time at 640 mg/kg, sc administered 72 hrs post infection
Assay type: functional
Details: route subcutaneous
Binned MST; ranges: low end = under 0.5 days, middle = from 0.5 days up to 2 days, high end = 2 days and over

Quick check: band for `C/C(=N\NC(=S)NCc1ccc(C)cc1C)c1ccccn1`
high end

Each compound maps to one class by MST. Which class for `C/C(=N\NC(=S)Nc1ccc(Cl)c(Cl)c1Cl)c1ccccn1` ?
low end

Please classify: `C/C(=N\NC(=S)Nc1cccnc1)c1ccccn1`
middle

Band for the recorded MST of `CC/C(=N\NC(=S)Nc1ccc([N+](=O)[O-])cc1)c1ccccn1` ?
low end

Further cases:
Dear colleague, I would appreciate it if you could identify the bin for `CC/C(=N\NC(=S)Nc1ccc(Cl)cc1)c1ccccn1` and reply at your convenience.
middle

Determine which band this compound sits in: `C/C(=N\NC(=S)Nc1cccc(Br)c1)c1ccccn1`
middle

State the band of `C/C(=N\NC(=S)Nc1cccc(Cl)c1)c1ccccn1`
high end

====

Tested on: Plasmodium berghei
Experiment: Antimalarial activity against Plasmodium berghei KBG 173 infected in ICR/HA Swiss mouse at 40 to 640 mg/kg, sc administered 72 hrs post infection
Assay type: functional, organism-based
Active and inactive are the calls of the source. No cut-off for these calls is given here.
Parameter measured: Activity

Consider the following illustrative entries.
Entry `C/C(=N\NC(=S)NC12CC3CC(CC(C3)C1)C2)c1ccncc1` has what Activity?
inactive

Look at this compound and give its reported Activity. `C/C(=N\NC(=S)Nc1ccccn1)c1cccnc1`
inactive

Which Activity value is on record for `C/C(=N\NC(=S)Nc1ccccn1)c1ccncc1` ?
inactive

Entry `C/C(=N\NC(=S)NC12CC3CC(CC(C3)C1)C2)c1cccnc1` has what Activity?
inactive

Could you tell me which Activity is on file for `C/C(=N\NC(=O)Nc1ccccc1)c1ccccn1` ?
inactive

Further cases:
Query: Activity; subject: `C/C(=N\NC(=S)Nc1ccccc1)c1ccncc1`
inactive

Data request, read-out Activity, for `C/C(=N\NC(=S)Nc1ccccc1)c1cccnc1`
inactive

====

Tested on: Plasmodium berghei
Assay: Antimalarial activity against Plasmodium berghei KBG 173 infected in ICR/HA Swiss mouse assessed as increase in mean survival time at 640 mg/kg, sc administered 72 hrs post infection
Format: functional
Conditions: route subcutaneous
Parameter measured: MST (days)
Unit days implied. Number only.

Value wanted: MST (Plasmodium berghei) of entry `C/C(=N\NC(=S)Nc1ccc(Br)cc1)c1ccccn1`
0.5

Look up MST with Plasmodium berghei for this compound: `CC/C(=N\NC(=S)Nc1cccc(Cl)c1)c1ccccn1`
0.5

Report MST for `C/C(=N\NC(=S)NCc1ccc(C)c(C)c1)c1ccccn1` tested on Plasmodium berghei.
2.1

***
Observed MST on Plasmodium berghei for `C/C(=N\NC(=S)NCc1ccccc1Cl)c1ccccn1` , please.
1.9

Tell me reported MST for `C/C(=N\NC(=S)Nc1ccc(Cl)c(Cl)c1)c1ccccn1` , tested with Plasmodium berghei.
0.5

Lab note: need MST with Plasmodium berghei for entry `C/C(=N\NC(=S)N1CC1)c1ccccn1` , please look it up.
0.1

====

Tested on: Plasmodium berghei
Assay: Antimalarial activity against Plasmodium berghei KBG 173 infected in ICR/HA Swiss mouse assessed as increase in mean survival time at 160 mg/kg, sc administered 72 hrs post infection
Assay type: functional
Conditions: route subcutaneous
Parameter measured: MST (days)
Give the value in days but do not write days after it.

What value of MST has been reported for the following molecule? `CC/C(=N\NC(=S)NC(c1ccccc1)(c1ccccc1)c1ccccc1)c1ccccn1`
0.1

Looking for the measured MST of `CC/C(=N\NC(=S)Nc1ccccc1Cl)c1ccccn1` , can you help?
0.1

Request the reported MST associated with `C/C(=N\NC(=S)Nc1c(C)cccc1C)c1ccccn1`
2

Name the reported MST value associated with the molecule `C/C(=N\NC(=S)NCc1ccc(C)cc1C)c1ccccn1`
3.1

I would be grateful if you could share the reported MST for `C/C(=N\NC(=S)Nc1ccncc1)c1ccccn1` .
0.3

# input molecule: `C/C(=N\NC(=S)NCc1cccc(Cl)c1)c1ccccn1` ; wanted: its MST
1.6

New cases:
Value lookup for MST; key = `C/C(=N\NC(=S)NC(C)(C)CC(C)(C)C)c1ccccn1`
0.9

Can you share its MST? I mean this molecule: `C/C(=N\NC(=S)NCc1cccnc1)c1ccccn1`
0.3
